Where do the numbers come from? From PubChem BioAssay AID504472.

Test system: S. cerevisiae Gln3-GFP nuclear translocation, microscopy
run_description: Gln3-GFP nuclear translocation in yeast, SAR follow-up, yeast TOR pathway modulator project, S. cerevisiae, GFP fusion, microscopy (AID 504472)
conditions: at 30 µM; active compounds read high
endpoint: nuclear translocation (1=yes)
// print number alone

Below are worked cases with known answers.
# structure, nuclear translocation (1=yes)
rows = [
    ("CNc1nc(N)c([N+](=O)[O-])c(Nc2cccc(Cl)c2)n1", 0),
    ("CNc1nc(N)c([N+](=O)[O-])c(Nc2ccccc2)n1", 0),
    ("CO[C@H]1C[C@@H]2CC[C@@H](C)[C@@](O)(O2)C(=O)C(=O)N2CCCC[C@H]2C(=O)O[C@H]([C@H](C)C[C@@H]2CC[C@@H](O)[C@H](OC)C2)CC(=O)[C@H](C)/C=C(\\C)[C@@H](O)[C@@H](OC)C(=O)[C@H](C)C[C@H](C)/C=C/C=C/C=C/1C", 1),
]

Could you now consider this next compound?
input: Item under review: "CNc1nc(N)c([N+](=O)[O-])c(Nc2cccc(F)c2)n1" . Reported nuclear translocation (1=yes)?
output: 0
